meta.source: ChEMBL document CHEMBL4017539

method description: in vivo
condition details: Beagle, dog, po, 6.9 mg/kg
Description: Cmax in Beagle dog at 6.9 mg/kg, po by LC-MS/MS analysis
observable: Cmax (ng/mL)
Field: numeric (ng/mL). Do not append units.

Task item: What value of measured Cmax is listed for CC(C)c1cccc(C(C)C)c1O ?
Reply: 97

----------
Test system: Mus musculus
method description: Anesthetic activity in ICR mouse assessed as anesthetic duration time at 200 mg equiv/kg parent drug administered via oral gavage
Format: functional
Time values for the compounds below.
Give just the number in min; leave the unit off.

In the examples that follow, each entry is paired with its recorded Time.
[
  {
    "compound": "CCOC(=O)[C@H](C)N[P@@](=O)(COC)Oc1c(C(C)C)cccc1C(C)C",
    "observable": "Time",
    "units": "min",
    "readout value": 47.24
  },
  {
    "compound": "CCOC(=O)C(C)(C)NP(=O)(COC)Oc1c(C(C)C)cccc1C(C)C (stereo unspecified)",
    "observable": "Time",
    "units": "min",
    "readout value": 115.9
  }
]

Task item: Item CCOC(=O)CNP(=O)(COC)Oc1c(C(C)C)cccc1C(C)C (stereo unspecified) has what recorded Time?
Reply: 32.48

Task item: Recorded Time for COCP(=O)(N[C@@H](C)C(=O)OCC(C)C)Oc1c(C(C)C)cccc1C(C)C (stereo partly specified) , please?
Reply: 24.47

Task item: Reported Time for CCOC(=O)[C@H](C)NP(=O)(COC)Oc1c(C(C)C)cccc1C(C)C (stereo partly specified) : what is it?
Reply: 60.31

Task item: I am curious: what Time value has been reported for COCP(=O)(N[C@@H](C)C(=O)OC(C)C)Oc1c(C(C)C)cccc1C(C)C (stereo partly specified) ?
Reply: 59.38
